experiment: Henry solubility constant Hcp at 298.15 K (mol/(m3 Pa)); conditions: reference: Abusallout et al. (2022)
Measured Henry solubility constant Hcp, listed per entry for reference.

| COMPOUND | Henry solubility constant Hcp |
| --- | --- |
| CCNS(=O)(=O)C(F)(F)C(F)(F)C(F)(F)C(F)(F)C(F)(F)C(F)(F)C(F)(F)C(F)(F)F [N-ethylperfluorooctanesulfonamide] | 0.00094 |
| C=CC(=O)OCCC(F)(F)C(F)(F)C(F)(F)C(F)(F)C(F)(F)C(F)(F)C(F)(F)C(F)(F)F | 0.0013 |
| OCCC(F)(F)C(F)(F)C(F)(F)C(F)(F)F | 0.0013 |
| FC(F)(F)C(F)(F)C(F)(F)C(F)(F)C(F)(F)C(F)(F)I [perfluorohexyl iodide] | 0.00046 |
| FC(F)(F)C(F)(F)C(F)(F)C(F)(F)C(F)(F)C(F)(F)/C=C/I | 0.00084 |
| O=S(=O)(O)CCC(F)(F)C(F)(F)C(F)(F)C(F)(F)C(F)(F)C(F)(F)C(F)(F)C(F)(F)F | 0.0022 |
| CNS(=O)(=O)C(F)(F)C(F)(F)C(F)(F)C(F)(F)C(F)(F)C(F)(F)C(F)(F)C(F)(F)F [N-methylperfluorooctanesulphonamide] | 0.00044 |

Reference source: Sander's compilation of Henry's law constants (doi:10.1016/j.hazl.2022.100070)
